Sourced from the Bradley open melting point set (2014)

Can you tell me melting point for the items I'm about to list?
One number for each entry, in °C.

# annotated cases, reported melting point shown
INSERT INTO measurements (molecule, observed_property, measure_unit, reported_result) VALUES
  ('CCCCCCCCCCCCCCCC(=O)OC[C@H](O)[C@H]1OC(=O)C(O)=C1O [L-ascorbic acid 6-palmitate]', 'melting point', '°C', 114),
  ('CC1(C)[C@H]2CC[C@](C)(C2)[C@H]1O [(1R)-endo-fenchyl alcohol]', 'melting point', '°C', 41),
  ('Cc1ccco1', 'melting point', '°C', -89);

Provide melting point values for the following items, in order.
1. Clc1ccc(-c2ccc(Cl)cc2)cc1
2. Clc1ccccc1

Given back:
1: 149; 2: -45

Provide melting point values for the following items, in order.
1. Cc1ccc(-c2ccc(/C=C/C(=O)c3ccco3)o2)cc1
2. CCOC(=O)C(NC=O)C(=O)OCC [diethyl formamidomalonate]

Given back:
1. 111
2. 53

Provide melting point values for the following items, in order.
1. CC(=O)OCCC(C)C [3-Methylbutyl acetate]
2. Oc1ccccc1Br
3. O=C1CCC(=O)N1C1CCCCC1 [N-(cyclohexyl)succinimide]
4. COc1ccc2c(c1)c(CC(=O)O)c(C)n2C(=O)c1ccc(Cl)cc1
5. O=[N+]([O-])c1ccc(Cl)cc1 [1-chloro-4-nitrobenzene]
6. CC(C)(C)[SiH](Cl)C(C)(C)C
7. O=C(O)c1cccc([N+](=O)[O-])c1C(=O)O

Given back:
[-100, 5, 165, 159, 84, 39, 212]

====

Can you tell me melting point for the items I'm about to list?
One number for each entry, in °C.

Provide melting point values for the following items, in order.
1. O=C(CBr)c1ccc(Br)cc1
2. N#CCc1ccc(B(O)O)cc1
3. O=C(O)c1cc2ccccc2o1 [benzo[b]furan-2-carboxylic acid]
4. Cc1ccc(N)cc1Br
5. c1ccc2c(c1)Oc1ccccc1S2
6. O=C(O)c1ccccc1[N+](=O)[O-]
7. c1ccc2nc3ccccc3nc2c1

Given back:
1: 110; 2: 198; 3: 194; 4: 27; 5: 57; 6: 148; 7: 158

====

Counter-ions that a name gives are not always drawn.
observed-property: melting point (°C)
Answers are plain numbers, in °C.

Provide melting point values for the following items, in order.
1. CCC(C)c1ccccc1 (stereo unspecified)
2. c1csc(C2CNCCN2)c1 (stereo unspecified)
3. CC(C)(C)c1ccc(C(C)(C)C)cc1 [1,4-di-tert-butylbenzene]
4. CC1=CC=C(C)C2=C(C)C=CC(C)=C1C2 [2,5,7,10-tetramethylbicyclo[4.4.1]undeca-1,3,5,7,9-pentaene]
5. CCCCCCCCCCCC(C)=O
6. COC=O [Methyl formate]
7. CC12CCC3C(CCC4(C)CC5(CCC34C)OCCO5)C1CCC2=O (stereo unspecified)
8. CCCCC(=O)O [pentanoic_acid]

Given back:
1. -75
2. 83
3. 77
4. 72
5. 24
6. -100
7. 159
8. -34

Provide melting point values for the following items, in order.
1. CCCCCCCCCCNCCCCCCCCCC [N-Decyldecan-1-amine]
2. CC1c2ccccc2C(=O)C1c1ccccc1 (stereo unspecified) [3-methyl-2-phenyl-2,3-dihydro-1H-inden-1-one]
3. CCOP(=S)(OCC)Oc1nc(Cl)c(Cl)cc1Cl [O,O-Diethyl O-(3,5,6-trichloropyridin-2-yl) phosphorothioate]
4. Cc1ccc(C(=O)c2ccccc2C(=O)O)cc1
5. N#CCOc1ccccc1Br
6. O=C(O)C1CC2=C3C=CCC=C3N=C2CN1 (stereo not drawn) [2,3,4,9-tetrahydro-1H-beta-carboline-3-carboxylic acid]

Given back:
1: 43; 2: 85; 3: 42.5; 4: 138; 5: 49; 6: 296

Provide melting point values for the following items, in order.
1. C=CCC1(CC(C)C)C(=O)NC(=O)NC1=O
2. Cc1ncc([N+](=O)[O-])n1CCO
3. C=C(C)[C@@H]1CCC2=CC(=O)C[C@@H](C)[C@]2(C)C1
4. COc1ccc(C(N)=O)cc1 [4-methoxybenzamide]

Given back:
[138, 160, 36.9, 166]

Provide melting point values for the following items, in order.
1. CCCCC(C)=O
2. O=C(O)c1cc2ccccc2oc1=O

Given back:
-56
192

Provide melting point values for the following items, in order.
1. COc1cccc(C=O)c1O
2. N#Cc1ccc(F)cc1
3. CCCCCCn1c(=O)c2c(ncn2C)n(C)c1=O

Given back:
1: 44.5; 2: 36; 3: 81

Provide melting point values for the following items, in order.
1. OB(O)c1ccc(OC(F)(F)F)cc1
2. NC(=O)c1ccc(Cl)cc1Cl [2,4-dichlorobenzamide]
3. O=c1ncnc2n(C3CCCCC3)[nH]cc1-2 [1-cyclohexyl-1,2-dihydro-4H-pyrazolo[3,4-d]pyrimidin-4-one]
4. NC(=O)NCc1ccccc1
5. BrCCCCCCBr
6. O=C1NC(=O)C(c2ccccc2)(c2ccccc2)N1
7. C=C(C)CCC(=C)C

Given back:
1. 123
2. 192
3. 252
4. 149
5. 2
6. 296
7. -75

Provide melting point values for the following items, in order.
1. COc1ccc2c(c1)=NC(c1ccccc1)C=2c1ccccc1 (stereo unspecified)
2. CN(C)CCCN
3. c1ccc2scnc2c1

Given back:
212
-70
2

Provide melting point values for the following items, in order.
1. C1=CC=CC=CC=C1 [Cycloocta-1,3,5,7-tetraene]
2. CCN=C=S [ethyl isothiocyanate]
3. CSc1nc(Cl)cc(N2CCCCC2)n1
4. O=C(O)c1cc(Br)cc(Br)c1
5. Oc1c(I)cc(I)cc1I
6. FC(F)(F)C(F)(F)F
7. Cc1cn(C2CC(N=[N+]=[N-])C(CO)O2)c(=O)[nH]c1=O (stereo unspecified)
8. c1cc(OCC2CO2)cc(OCC2CO2)c1 (stereo unspecified)

Given back:
1: -27; 2: -6; 3: 83.8; 4: 220; 5: 158; 6: -100; 7: 106; 8: 34

====

observed-property: melting point (°C)
One number for each entry, in °C.

# annotated cases, reported melting point shown
INSERT INTO results (molecule, reported_result) VALUES
  ('O=C(/C=C/c1ccc(-c2ccc([N+](=O)[O-])cc2)o1)c1ccccc1 [(2E)-3-[5-(4-Nitrophenyl)-2-furyl]-1-phenylprop-2-en-1-one]', 158),
  ('Cc1ccc(-n2ncccc2=O)cc1', 97.8),
  ('O=C(O)COc1ccccc1Cl', 150),
  ('C=Cc1ccccc1 [styrene]', -31),
  ('OC1CCCCC1 [Cyclohexanol]', 21),
  ('O=C(O)c1cccc(Cl)c1[N+](=O)[O-]', 237),
  ('O=C(O)c1cc(=O)[nH]c(=O)[nH]1 [orotic acid]', 346),
  ('CC1(C)C(=O)N(Cl)C(=O)N1Cl', 135),
  ('CC(=O)NS(=O)(=O)c1ccc(N)cc1 [sulfacetamide]', 183);

Let's switch to this molecule now.
Asked: Which melting point is listed for CCC1(c2ccccc2)C(=O)NCNC1=O [primidone] ?
Given back: 282

====

observed-property: melting point

# annotated cases, reported melting point shown
INSERT INTO assay_data (compound, reported_result) VALUES
  ('O=C(/C=C/c1ccc(-c2ccc(Cl)cc2)o1)c1ccccc1 [(2E)-3-[5-(4-Chlorophenyl)-2-furyl]-1-phenylprop-2-en-1-one]', '127 °C'),
  ('CC(C)OP(=O)(CCP(=O)(OC(C)C)OC(C)C)OC(C)C [tetraisopropyl 1,2-ethylenediphosphonate]', '36 °C'),
  ('O=C1CCCN1 [2-pyrrolidinone]', '24 °C'),
  ('CC/C=C/CC [trans-3-hexene]', '-113 °C'),
  ('O=C(C1CCCCC1)N1CC(=O)N2CCc3ccccc3C2C1 (stereo not given) [Praziquantel]', '136 °C'),
  ('COc1ccc(CN)cc1 [4-methoxybenzylamine]', '-10 °C'),
  ('Nc1cc(N2CCCCC2)nc(N)[n+]1[O-] [Minoxidil]', '248 °C'),
  ('O=[N+]([O-])c1c(Cl)cc(Cl)cc1Cl [1,3,5-Trichloro-2-nitrobenzene]', '72 °C'),
  ('CCOC(C)(C)C [tert-butyl ethyl ether]', '-94 °C');

Let's switch to this compound now.
Asked: Which melting point is listed for c1ccc2c(c1)c1ccccc1c1ccccc21 [Triphenylene] ?
Given back: 199 °C

====

Can you tell me melting point for the items I'm about to list?
Your reply should be a number followed by the unit it is expressed in.

# annotated cases, reported melting point shown
INSERT INTO results (molecule, reported_result) VALUES
  ('Nc1ccc(/N=C/c2cccc([N+](=O)[O-])c2)cc1 [4-[(E)-(3-Nitrobenzylidene)amino]aniline]', '148 °C'),
  ('O=C(O)COc1ccccc1', '100 °C');

Provide melting point values for the following items, in order.
1. O=S(=O)(Cc1ccccc1)c1ccccc1
2. Cc1ccc(C(=O)O)cc1F
3. O=[N+]([O-])c1ccc(-c2ccc([N+](=O)[O-])cc2Cl)cc1

Given back:
1: 149 °C; 2: 170 °C; 3: 145 °C
